Tested on: HCT-116
Experiment: Cytotoxicity against human HCT116 cells after 24 to 72 hrs
Format: functional, cell-based
Observed Property: pIC50
Scale: pIC50 equals -log10([C]), with [C] in mol/L.

What the record says about CC(C)c1cccc(=O)c(O)c1 : pIC50 is 5.35

* * *

Test system: SW-620
Experiment: Cytotoxicity against human SW620 cells after 24 to 72 hrs
Type: functional, cell-based
Observed Property: IC50 (µM)
Give the value in µM but do not write µM after it.

What the record says about CC(C)c1cccc(=O)c(O)c1 : IC50 is 4.4
